- Assay system: biotinylated labeled human GPC3 protein (produced in-house) (human, UniProt P51654 25-559, limits assumed, biotinylated (Dojindo, Cat. No. LK03); sites not stated)
- Assay explanation: ELISA, biotinylated human GPC3 protein
Reported property: OD450 at 0.11 nM (OD450)

| Binder | Reported property | U | Recorded result |
| --- | --- | --- | --- |
| hAb003LH2L1 (antibody, human IgG1, V domains shown, Humanized F2.154.1; VH H2 + VL L1; expressed as human IgG1) VH: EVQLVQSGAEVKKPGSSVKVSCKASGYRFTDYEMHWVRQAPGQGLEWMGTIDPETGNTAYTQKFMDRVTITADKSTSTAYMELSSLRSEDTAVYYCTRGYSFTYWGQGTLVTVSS VL: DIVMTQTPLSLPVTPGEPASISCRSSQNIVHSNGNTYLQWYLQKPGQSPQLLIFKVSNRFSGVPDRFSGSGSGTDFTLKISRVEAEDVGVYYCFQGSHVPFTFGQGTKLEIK | OD450 at 0.11 nM | OD450 | 1.98 |
| hAb001H1aL1b (antibody, human IgG1, V domains shown, Humanized F2.169.2; VH H1a + VL L1b; expressed as human IgG1) VH: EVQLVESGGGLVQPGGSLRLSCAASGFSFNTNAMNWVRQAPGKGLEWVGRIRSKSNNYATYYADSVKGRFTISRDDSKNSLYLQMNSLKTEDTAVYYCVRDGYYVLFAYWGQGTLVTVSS VL: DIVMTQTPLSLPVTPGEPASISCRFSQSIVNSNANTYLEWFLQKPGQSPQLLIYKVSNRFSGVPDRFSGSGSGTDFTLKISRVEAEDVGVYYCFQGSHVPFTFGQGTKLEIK | OD450 at 0.11 nM | OD450 | 1.93 |
